Settings: human, in vivo, sc, 0.1 mg, M1 t1/2, max
Starred links: 1 amine or outer side, 2 acyl side, 3 side chain; linkers in the order of their positions; H or OH if unused. Positions of bridges follow the written chain, without caps; N, C: chain ends. Non-standard residues stand in square brackets, D forms with d. Residues, ends and D or L forms follow the SMILES beside them. Groups on a side chain read outwards from the residue. *: point of attachment. X1 = CC(=O)NCCCC[C@H](NC(=O)CC[C@H](N)C(N)=O)C(=O)*; εLys = N[C@@H](CCCCN[*:1])C(=O)[*:2]; Dab = NCC[C@H](N)C(=O)O
Recorded Metric: half-life

Ask | I would be grateful if you could share the reported half-life for CC[C@H](C)[C@@H]1NC(=O)[C@H](Cc2ccccc2)NC(=O)[C@@H](N)CSSC[C@@H](C(=O)N2CCC[C@H]2C(=O)N[C@@H](CCNC(=O)[C@@H](N)CCCCNC(=O)[C@H](CCCCNC(C)=O)NC(=O)CC[C@H](N)C(N)=O)C(=O)NCC(N)=O)NC(=O)[C@H](CC(N)=O)NC(=O)[C@H](CCC(N)=O)NC1=O [Compound M1] (H-CFIQNCP[Dab]([εLys-X1])G-NH2; disulfide 1-6) .
Reply | 2.1 h
